# Tested on: hepatocarcinoma HepG2
# Assay notes: Safety, MTT test in HepG2
# Format: cell-based
# Measurement parameters: 250 μM, 48 hours
Catalogue of MTT, Hepatocarcinoma HepG2 readings, one per entry.

Previously resolved entries follow.
O=C(/C=C/c1ccc(Cl)cc1)NCCCO    93.16 ± 1.71 % of solvent control
O=C(/C=C/c1ccc(Cl)cc1)NCCO    100.08 ± 10.58 % of solvent control

Q) Annotate the molecule `Cc1ccc(/C=C/C(=O)NCCCCCO)cc1` with its measured MTT, Hepatocarcinoma HepG2.
A) 98.90 ± 4.21 % of solvent control

Q) Report MTT, Hepatocarcinoma HepG2 for `O=C(/C=C/c1ccccc1)NCCCCCO`
A) 98.92 ± 2.34 % of solvent control

Q) Determine its reported MTT, Hepatocarcinoma HepG2: `O=C(/C=C/c1ccc(Cl)cc1)NCCCCCO`
A) 96.27 ± 2.57 % of solvent control

* * *

# Test system: CHO-K1 cells
# Assay notes: Cytotoxicity (MTT) in CHO-K1 cells before the micronucleus test
# Type: cell-based, Chinese hamster
# Measurement parameters: 100 μM, 24 hours
Rule: measured % Viability [mean], CHO-K1 below 90% gets true; anything equal to or greater than 90% gets false.

Q) % Viability [mean], CHO-K1 strictly < 90% for this compound? Cc1ccc(/C=C/C(=O)NCCCCCO)cc1 [H-415/21]
A) false

Q) % Viability [mean], CHO-K1 strictly < 90% for this compound? CC(CO)NC(=O)/C=C/c1ccc(Cl)cc1 (stereo not drawn) [Compound A-102]
A) true

Q) Please determine if O=C(/C=C/c1ccccc1)NCCCCCO [Compound A-133] is below 90% in terms of % Viability [mean], CHO-K1.
A) false

Q) Take the compound O=C(/C=C/c1ccc(Cl)cc1)NCCCCCO [Compound A-111] and say whether its % Viability [mean], CHO-K1 is less than 90%.
A) true

Q) Is it true that % Viability [mean], CHO-K1 reported for CCC(O)CNC(=O)/C=C/c1ccc(Cl)cc1 (stereo not drawn) [Compound A-67] is less than 90%?
A) false

* * *

# Test system: keratinocytes (HaCaT)
# Assay notes: Safety, LDH test in keratinocytes
# Format: cell-based
# Measurement parameters: 250 μM, 48 hours, vs Triton X-100
# Excerpt: In order to test the safety of the compounds, both normal human cells were used: keratinocytes (HaCaT), fibroblasts (BJ), primary melanocytes that occur in the skin, as well as human cancer cells: the hepatocarcinoma line HepG2 and the neuroblastoma line SH-SY5Y, which are considered a model for the assessment of hepatocytotoxicity and neurocytotoxicity. […] The absorbance at 570 nm, which corresponds to the absorption maximum for the product, is directly proportional to cell viability. […]
Experimental readout: LDH, Keratinocytes (HaCaT)

O=C(/C=C/c1ccc(Cl)cc1)NCCO    17.79 percentage of positive control
Cc1ccc(/C=C/C(=O)NCCCCCO)cc1    18.19 percentage of positive control
O=C(/C=C/c1ccccc1)NCCCCCO    19.58 percentage of positive control
O=C(/C=C/c1ccc(Cl)cc1)NCCCO    24.24 percentage of positive control

Q) Provide LDH, Keratinocytes (HaCaT) value for the following compound: `O=C(/C=C/c1ccc(Cl)cc1)NCCCCCO`
A) 13.55 percentage of positive control

* * *

The following compounds are listed with their measured Increase in the number of yellow wells compared to the reference level, TA1537 values.
# System: S. typhimurium TA1537
# Assay notes: Ames microplate test, TA1537
# Format: cell-based, Salmonella typhimurium
# Measurement parameters: 2.0 mM, + S9
Answer with the value's number alone.

O=C(/C=C/c1ccc(Cl)cc1)NCCCCCO    0.27
O=C(/C=C/c1ccccc1)NCCCCCO    0.27
CCC(O)CNC(=O)/C=C/c1ccc(Cl)cc1 (stereo not shown)    0.00

Shift focus to the following entry.
Q) Complete the entry with Increase in the number of yellow wells compared to the reference level, TA1537 for `O=C(/C=C/c1ccccc1)NCCCCCCO`
A) 1.00
